The values you see were collected from the supplement of paper PMC8612539.

Each record here notes measured minimum inhibitory concentration.
Tested on: Pasteurella multocida
Test: minimum inhibitory concentration (MIC)
Settings: isolate (source animal id): 269
Observation Type: minimum inhibitory concentration

| Structure Notation | Result |
| --- | --- |
| CC[C@H]1OC(=O)C[C@@H](O)[C@H](C)[C@@H](O[C@@H]2O[C@H](C)[C@@H](O)[C@H](N(C)C)[C@H]2O)[C@@H](CCN2CCCCC2)C[C@@H](C)C(=O)/C=C/C(C)=C/[C@@H]1CN1CCCCC1 | ≤ 1 µg/mL |
| CC[C@H]1OC(=O)C[C@@H](O)[C@H](C)[C@@H](O[C@@H]2O[C@H](C)[C@@H](O[C@H]3C[C@@](C)(O)[C@@H](O)[C@H](C)O3)[C@H](N(C)C)[C@H]2O)[C@@H](CC=O)C[C@@H](C)C(=O)/C=C/C(C)=C/[C@@H]1CO[C@@H]1O[C@H](C)[C@@H](O)[C@@H](OC)[C@H]1OC | > 32 µg/mL |
| CC1(C)S[C@@H]2[C@H](NC(=O)[C@H](N)c3ccccc3)C(=O)N2[C@H]1C(=O)O | ≤ 0.25 µg/mL |
| CCN1CCN(c2cc3c(cc2F)c(=O)c(C(=O)O)cn3C2CC2)CC1 | ≤ 0.12 µg/mL |
| COc1cc(NS(=O)(=O)c2ccc(N)cc2)nc(OC)n1 | > 256 µg/mL |
| CC1(C)S[C@@H]2[C@H](NC(=O)Cc3ccccc3)C(=O)N2[C@H]1C(=O)O | ≤ 0.12 µg/mL |

----------
System: Escherichia coli
Assay: minimum inhibitory concentration (MIC)
Details: isolate (source animal id): 116
Each record here notes measured minimum inhibitory concentration.

| Structure Notation | Target Entity | minimum inhibitory concentration |
| --- | --- | --- |
| CC[C@H]1OC(=O)C[C@@H](O)[C@H](C)[C@@H](O[C@@H]2O[C@H](C)[C@@H](O)[C@H](N(C)C)[C@H]2O)[C@@H](CCN2C[C@H](C)C[C@H](C)C2)C[C@@H](C)C(=O)/C=C/C(C)=C/[C@@H]1CO[C@@H]1O[C@H](C)[C@@H](O)[C@@H](OC)[C@H]1OC | Escherichia coli | > 16 µg/mL |
| CCC[C@@H]1C[C@@H](C(=O)N[C@@H]([C@H]2O[C@H](SC)[C@H](O)[C@@H](O)[C@H]2O)[C@H](C)Cl)N(C)C1 | Escherichia coli | > 16 µg/mL |
| CC[C@H]1OC(=O)C[C@@H](O)[C@H](C)[C@@H](O[C@@H]2O[C@H](C)[C@@H](O[C@H]3C[C@@](C)(O)[C@@H](O)[C@H](C)O3)[C@H](N(C)C)[C@H]2O)[C@@H](CC=O)C[C@@H](C)C(=O)/C=C/C(C)=C/[C@@H]1CO[C@@H]1O[C@H](C)[C@@H](O)[C@@H](OC)[C@H]1OC | Escherichia coli | > 32 µg/mL |

----------
Tested on: Mannheimia haemolytica
Test: minimum inhibitory concentration (MIC)
Settings: isolate (source animal id): 151
Observation Type: minimum inhibitory concentration

| Structure Notation | Observation Type | Result |
| --- | --- | --- |
| NC[C@@H]1O[C@H](O[C@H]2[C@@H](O)[C@H](O[C@@H]3[C@@H](O)[C@H](N)C[C@H](N)[C@H]3O[C@H]3O[C@H](CN)[C@@H](O)[C@H](O)[C@H]3N)O[C@@H]2CO)[C@H](N)[C@@H](O)[C@@H]1O | minimum inhibitory concentration | ≤ 4 µg/mL |
| CC[C@H]1OC(=O)C[C@@H](O)[C@H](C)[C@@H](O[C@@H]2O[C@H](C)[C@@H](O[C@H]3C[C@@](C)(O)[C@@H](O)[C@H](C)O3)[C@H](N(C)C)[C@H]2O)[C@@H](CC=O)C[C@@H](C)C(=O)/C=C/C(C)=C/[C@@H]1CO[C@@H]1O[C@H](C)[C@@H](O)[C@@H](OC)[C@H]1OC | minimum inhibitory concentration | > 32 µg/mL |
| COc1cc(Cc2cnc(N)nc2N)cc(OC)c1OC.Cc1cc(NS(=O)(=O)c2ccc(N)cc2)no1 | minimum inhibitory concentration | ≤ 2 µg/mL |
| CO/N=C(\C(=O)N[C@@H]1C(=O)N2C(C(=O)O)=C(CSC(=O)c3ccco3)CS[C@H]12)c1csc(N)n1 | minimum inhibitory concentration | ≤ 0.25 µg/mL |

----------
System: Escherichia coli
Assay: minimum inhibitory concentration (MIC)
Details: isolate (source animal id): 98

| Compound | minimum inhibitory concentration |
| --- | --- |
| C=C[C@]1(C)C[C@@H](OC(=O)CSCCN(CC)CC)[C@]2(C)[C@H](C)CC[C@]3(CCC(=O)[C@H]32)[C@@H](C)[C@@H]1O | > 32 µg/mL |
| CNC(C)C1CCC(N)C(OC2C(N)CC(N)C(OC3OCC(C)(O)C(NC)C3O)C2O)O1 (stereo not drawn) | ≤ 1 µg/mL |
| CC[C@H]1OC(=O)C[C@@H](O)[C@H](C)[C@@H](O[C@@H]2O[C@H](C)[C@@H](O)[C@H](N(C)C)[C@H]2O)[C@@H](CCN2C[C@H](C)C[C@H](C)C2)C[C@@H](C)C(=O)/C=C/C(C)=C/[C@@H]1CO[C@@H]1O[C@H](C)[C@@H](O)[C@@H](OC)[C@H]1OC | > 16 µg/mL |

----------
Test system: Pasteurella multocida
Assay: minimum inhibitory concentration (MIC)
Conditions: isolate (source animal id): 290

| Structure Notation | minimum inhibitory concentration |
| --- | --- |
| CC1(C)S[C@@H]2[C@H](NC(=O)[C@H](N)c3ccccc3)C(=O)N2[C@H]1C(=O)O | ≤ 0.25 µg/mL |
| CCCNC[C@]1(O)[C@H](C)O[C@@H](O[C@H]2[C@H](C)[C@@H](O[C@@H]3O[C@H](C)C[C@H](N(C)C)[C@H]3O)[C@](C)(O)C[C@@H](C)CN[C@H](C)[C@@H](O)[C@](C)(O)[C@@H](CC)OC(=O)[C@@H]2C)C[C@@]1(C)OC | ≤ 8 µg/mL |
| CCC[C@@H]1C[C@@H](C(=O)N[C@@H]([C@H]2O[C@H](SC)[C@H](O)[C@@H](O)[C@H]2O)[C@H](C)Cl)N(C)C1 | > 16 µg/mL |

----------
System: Mannheimia haemolytica
Experiment: minimum inhibitory concentration (MIC)
Conditions: isolate (source animal id): 149
Observation Type: minimum inhibitory concentration

| Structure Notation | Observation Type | Result |
| --- | --- | --- |
| CC1(C)S[C@@H]2[C@H](NC(=O)Cc3ccccc3)C(=O)N2[C@H]1C(=O)O | minimum inhibitory concentration | ≤ 0.12 µg/mL |
| CCCNC[C@]1(O)[C@H](C)O[C@@H](O[C@H]2[C@H](C)[C@@H](O[C@@H]3O[C@H](C)C[C@H](N(C)C)[C@H]3O)[C@](C)(O)C[C@@H](C)CN[C@H](C)[C@@H](O)[C@](C)(O)[C@@H](CC)OC(=O)[C@@H]2C)C[C@@]1(C)OC | minimum inhibitory concentration | ≤ 8 µg/mL |
| CC1(C)S[C@@H]2[C@H](NC(=O)[C@H](N)c3ccccc3)C(=O)N2[C@H]1C(=O)O | minimum inhibitory concentration | ≤ 0.25 µg/mL |
| NC[C@@H]1O[C@H](O[C@H]2[C@@H](O)[C@H](O[C@@H]3[C@@H](O)[C@H](N)C[C@H](N)[C@H]3O[C@H]3O[C@H](CN)[C@@H](O)[C@H](O)[C@H]3N)O[C@@H]2CO)[C@H](N)[C@@H](O)[C@@H]1O | minimum inhibitory concentration | ≤ 4 µg/mL |
| CN1C[C@@H]2C[C@H]1CN2c1cc2c(cc1F)c(=O)c(C(=O)O)cn2C1CC1 | minimum inhibitory concentration | ≤ 0.12 µg/mL |

----------
Test system: Histophilus somni
Assay: minimum inhibitory concentration (MIC)
Conditions: isolate (source animal id): 247
Each record here notes measured minimum inhibitory concentration.

| Structure Notation | minimum inhibitory concentration |
| --- | --- |
| CN[C@@H]1[C@H](O)[C@H](NC)[C@H]2O[C@@]3(O)C(=O)C[C@@H](C)O[C@H]3O[C@@H]2[C@H]1O | > 64 µg/mL |
| CC1(C)S[C@@H]2[C@H](NC(=O)Cc3ccccc3)C(=O)N2[C@H]1C(=O)O | ≤ 0.12 µg/mL |
| COc1cc(NS(=O)(=O)c2ccc(N)cc2)nc(OC)n1 | > 256 µg/mL |

----------
Tested on: Escherichia coli
Assay: minimum inhibitory concentration (MIC)
Conditions: isolate (source animal id): 98
Observation Type: minimum inhibitory concentration

| Structure Notation | Observation Type | Result |
| --- | --- | --- |
| CN(C)[C@@H]1C(O)=C(C(N)=O)C(=O)[C@@]2(O)C(O)=C3C(=O)c4c(O)cccc4[C@@](C)(O)[C@H]3C[C@@H]12 | minimum inhibitory concentration | > 8 µg/mL |
| COc1cc(NS(=O)(=O)c2ccc(N)cc2)nc(OC)n1 | minimum inhibitory concentration | ≤ 256 µg/mL |
| NC[C@@H]1O[C@H](O[C@H]2[C@@H](O)[C@H](O[C@@H]3[C@@H](O)[C@H](N)C[C@H](N)[C@H]3O[C@H]3O[C@H](CN)[C@@H](O)[C@H](O)[C@H]3N)O[C@@H]2CO)[C@H](N)[C@@H](O)[C@@H]1O | minimum inhibitory concentration | ≤ 4 µg/mL |
